# tested.system: AChE (EC 3.1.1.7, Electrophorus electricus) (Electrophorus electricus)
# Construct: purchased Sigma Aldrich (Steinheim, Germany)
# assay.explanation: biochemical
# stated.conditions: Ellman's method, pH 8.0, 37 °C; mean ± SD of three independent experiments; read-out: AChE IC50 ± SD
pIC50: −log10 of the molar value.
Output 1.0 for pIC50 not less than 6; output 0.0 otherwise.

Example results:
{"columns": ["compound", "label.class"],
 "data": [
  ["Cl.O=C(NCCCCCCNc1c2c(nc3ccccc13)CCC2)c1c2ccccc2nc2ccccc12 [Compound 3e]", 1.0],
  ["Cl.O=C(NCCCCCCCNc1c2c(nc3ccccc13)CCC2)c1c2ccccc2nc2ccccc12 [Compound 3f]", 1.0],
  ["Cl.O=C(NCCNc1c2c(nc3ccccc13)CCC2)c1c2ccccc2nc2ccccc12 [Compound 3a]", 0.0]
]}

Now look at this entry.
QUERY: Would you say Cl.O=C(NCCCCNc1c2c(nc3ccccc13)CCC2)c1c2ccccc2nc2ccccc12 [Compound 3c] shows pIC50 at minimum 6?
RESULT: 1.0

* * *

# assay.explanation: in vitro
# stated.conditions: human, human hepatic stellate cells (HSCs)
experimental.readout: IC50 at 24 h (µM)
Numeric only. Scale: µM

QUERY: # query: IC50 at 24 h of entry Cl.O=C(NCCCCCCCNc1c2c(nc3ccccc13)CCC2)c1c2ccccc2nc2ccccc12
RESULT: 49.8

* * *

# tested.system: BuChE (EC 3.1.1.8, equine serum) (Equus caballus)
# Construct: purchased Sigma Aldrich (Steinheim, Germany); host or cells: equine serum
# Sequence (P81908 whole entry): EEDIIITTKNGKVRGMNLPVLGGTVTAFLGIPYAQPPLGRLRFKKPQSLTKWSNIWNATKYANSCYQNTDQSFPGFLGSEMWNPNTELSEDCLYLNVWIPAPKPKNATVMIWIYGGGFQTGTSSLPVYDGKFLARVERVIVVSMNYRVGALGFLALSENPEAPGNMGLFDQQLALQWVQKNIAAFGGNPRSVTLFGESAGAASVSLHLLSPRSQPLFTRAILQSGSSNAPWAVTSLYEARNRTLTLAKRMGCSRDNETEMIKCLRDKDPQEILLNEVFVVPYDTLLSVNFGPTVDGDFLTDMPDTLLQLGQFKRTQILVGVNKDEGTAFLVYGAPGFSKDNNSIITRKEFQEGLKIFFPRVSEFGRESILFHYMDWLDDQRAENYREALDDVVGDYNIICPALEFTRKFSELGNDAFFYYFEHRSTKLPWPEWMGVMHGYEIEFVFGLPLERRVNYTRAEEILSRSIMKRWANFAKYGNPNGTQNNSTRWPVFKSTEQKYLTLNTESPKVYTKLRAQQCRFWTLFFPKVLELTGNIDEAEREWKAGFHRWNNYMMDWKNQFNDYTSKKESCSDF
# assay.explanation: biochemical
# Assay type: biochemical
# stated.conditions: pH 8; read-out: BuChE IC50 ± SD
experimental.readout: IC50 (nM)
Numeric only. Scale: nM

QUERY: # query: IC50 of entry c1ccc2c(NCCCCCCCNc3c4c(nc5ccccc35)CCCC4)c3c(nc2c1)CCCC3 [Bistacrine, bistacrine, reference compound]
RESULT: 226

* * *

# tested.system: AChE (EC 3.1.1.7, Electrophorus electricus) (Electrophorus electricus, UniProt O42275)
# Construct: purchased Sigma Aldrich (Steinheim, Germany)
# Sequence (O42275 24-633): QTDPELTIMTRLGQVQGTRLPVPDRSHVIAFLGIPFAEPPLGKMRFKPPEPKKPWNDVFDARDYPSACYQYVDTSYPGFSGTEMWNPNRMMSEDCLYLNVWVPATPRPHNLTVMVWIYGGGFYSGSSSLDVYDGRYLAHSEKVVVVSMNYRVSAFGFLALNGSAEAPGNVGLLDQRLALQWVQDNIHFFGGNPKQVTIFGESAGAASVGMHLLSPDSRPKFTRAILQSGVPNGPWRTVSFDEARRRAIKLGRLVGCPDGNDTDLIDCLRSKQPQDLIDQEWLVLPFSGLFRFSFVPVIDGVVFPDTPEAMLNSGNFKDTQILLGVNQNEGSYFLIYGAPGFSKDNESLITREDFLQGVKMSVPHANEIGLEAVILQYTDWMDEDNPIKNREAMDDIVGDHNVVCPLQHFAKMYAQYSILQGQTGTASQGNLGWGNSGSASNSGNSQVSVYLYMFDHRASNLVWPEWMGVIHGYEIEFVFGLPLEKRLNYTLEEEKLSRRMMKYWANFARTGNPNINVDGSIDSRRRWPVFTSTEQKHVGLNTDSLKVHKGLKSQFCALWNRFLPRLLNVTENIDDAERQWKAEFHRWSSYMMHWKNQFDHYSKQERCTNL
# assay.explanation: biochemical
# stated.conditions: IC50(BuChE)/IC50(AChE)
Output T for Selectivity for AChE not less than 0.3; output F otherwise.

Example results:
{"columns": ["smiles.code", "tested.system", "label.class"],
 "data": [
  ["Cl.O=C(NCCCCCCCCCNc1c2c(nc3ccccc13)CCC2)c1c2ccccc2nc2ccccc12", "AChE (EC 3.1.1.7, Electrophorus electricus) (Electrophorus electricus, UniProt O42275)", "T"],
  ["Cl.O=C(NCCCCCCCNc1c2c(nc3ccccc13)CCC2)c1c2ccccc2nc2ccccc12", "AChE (EC 3.1.1.7, Electrophorus electricus) (Electrophorus electricus, UniProt O42275)", "T"],
  ["Cl.O=C(NCCCCCNc1c2c(nc3ccccc13)CCC2)c1c2ccccc2nc2ccccc12", "AChE (EC 3.1.1.7, Electrophorus electricus) (Electrophorus electricus, UniProt O42275)", "F"]
]}

Now look at this entry.
QUERY: Would you say Cl.O=C(NCCCCCCCCNc1c2c(nc3ccccc13)CCC2)c1c2ccccc2nc2ccccc12 shows Selectivity for AChE at minimum 0.3?
RESULT: F

* * *

# tested.system: AChE (EC 3.1.1.7, Electrophorus electricus) (Electrophorus electricus, UniProt O42275)
# Construct: purchased Sigma Aldrich (Steinheim, Germany)
# assay.explanation: biochemical
# stated.conditions: IC50(BuChE)/IC50(AChE)
experimental.readout: Selectivity for AChE
Form field (numeric): enter value without unit.

// solved cases for Selectivity for AChE follow
{"columns": ["molecule", "experimental.readout", "reported.measurement"],
 "data": [
  ["Cl.O=C(NCCCCCCNc1c2c(nc3ccccc13)CCC2)c1c2ccccc2nc2ccccc12 [Compound 3e]", "Selectivity for AChE", 0.49],
  ["Cl.O=C(NCCNc1c2c(nc3ccccc13)CCC2)c1c2ccccc2nc2ccccc12 [Compound 3a]", "Selectivity for AChE", 0.063]
]}

Would you kindly look at the next entry?
QUERY: # query: Selectivity for AChE of entry Cl.O=C(NCCCCNc1c2c(nc3ccccc13)CCC2)c1c2ccccc2nc2ccccc12 [Compound 3c]
RESULT: 0.73
